// values below are reported pIC50
# tested_target: Beta-3 Adrenergic Receptor (Homo sapiens (Human))
# Sequence (P13945 whole entry, species assumed): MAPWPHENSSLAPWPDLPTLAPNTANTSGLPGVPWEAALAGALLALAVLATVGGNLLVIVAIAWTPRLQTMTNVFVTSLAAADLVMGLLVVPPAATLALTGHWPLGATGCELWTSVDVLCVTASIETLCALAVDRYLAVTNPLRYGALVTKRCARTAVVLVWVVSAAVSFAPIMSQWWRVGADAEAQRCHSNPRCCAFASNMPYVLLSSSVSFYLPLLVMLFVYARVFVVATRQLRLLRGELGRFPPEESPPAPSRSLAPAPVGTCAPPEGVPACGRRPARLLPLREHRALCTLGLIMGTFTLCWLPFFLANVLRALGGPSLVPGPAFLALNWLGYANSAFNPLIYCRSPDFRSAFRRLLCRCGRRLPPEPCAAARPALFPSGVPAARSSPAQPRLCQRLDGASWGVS
# test_protocol: HTRF cAMP antagonist assay (IC50 determination)
# Format: cell-based
# run_conditions: CHO-K1 cells stably expressing recombinant receptor; antagonism of isoproterenol at EC90; cAMP readout
pIC50: −log10 of the molar value.
property_measured: pIC50

INSERT INTO measurements (molecule, property_measured, measured_value) VALUES
  ('Cc1c(-c2ccc(C3(N)CC3)cc2)cccc1S(=O)(=O)N1CCC2(CC1)C[C@H](NC[C@H](O)COc1cccc(S(=O)(=O)C3(CO)CC3)c1)CO2', 'pIC50', 7.21),
  ('O=S(=O)(c1ccc2ccccc2c1)N1CCC2(CC1)C[C@@H](NC[C@H](O)COc1cccc(S(=O)(=O)C3(CO)CC3)c1)CO2', 'pIC50', 7.69),
  ('CS(=O)(=O)c1cccc(OC[C@@H](O)CNC2COC3(CCN(S(=O)(=O)c4cccnc4)CC3)C2)c1 (stereo partly drawn)', 'pIC50', 7.06),
  ('CCOc1ccc(-c2ccc(C(C)(C)N)cc2)cc1S(=O)(=O)N1CCC2(CC1)CC(NC[C@H](O)COc1cccc(S(=O)(=O)C3(CO)CC3)c1)CO2 (stereo partly drawn)', 'pIC50', 7.29),
  ('CS(=O)(=O)c1cccc(OC[C@@H](O)CNC2COC3(CCN(C(=O)c4ccc5ccccc5c4)CC3)C2)c1 (stereo partly drawn)', 'pIC50', 6.31),
  ('CCS(=O)(=O)c1cccc(OC[C@@H](O)CN[C@H]2COC3(CCN(S(=O)(=O)c4ccc(OC)c(-c5ccc(C6(N)CC6)cc5)c4)CC3)C2)c1', 'pIC50', 7.56),
  ('CC(=O)NCCc1ccc(-c2cccc(S(=O)(=O)N3CCC4(CC3)C[C@H](NC[C@H](O)COc3cccc(S(=O)(=O)C5(CO)CC5)c3)CO4)c2)cc1', 'pIC50', 7.50),
  ('Cn1cc(S(=O)(=O)N2CCC3(CC2)C[C@@H](NC[C@H](O)COc2cccc(S(=O)(=O)C4(CO)CC4)c2)CO3)c(=O)c2ccccc21', 'pIC50', 6.84),
  ('O=S(=O)(c1cnc2ccccc2c1)N1CCC2(CC1)C[C@@H](NC[C@H](O)COc1cccc(S(=O)(=O)C3(CO)CC3)c1)CO2', 'pIC50', 7.73),
  ('CS(=O)(=O)c1ccc(OC[C@@H](O)CNC2COC3(CCN(S(=O)(=O)c4ccc5ccccc5c4)CC3)C2)cc1 (stereo partly drawn)', 'pIC50', 7.10),
  ('O=S(=O)(c1cccc(OC[C@@H](O)CN[C@H]2COC3(CCN(S(=O)(=O)c4cnc5c(c4)CCCO5)CC3)C2)c1)C1CC1', 'pIC50', 7.16),
  ('CCOc1c(S(=O)(=O)N2CCC3(CC2)C[C@@H](NC[C@H](O)COc2cccc(S(=O)(=O)C4(CO)CC4)c2)CO3)ccc2ccccc12', 'pIC50', 6.45);
